Hello, the source for this data is patent US20220275390A1, in case you need it.

Molecular target: T1, Chlamydomonas reinhardtii Rubisco holoenzyme (L8S8) (Chlamydomonas reinhardtii, UniProt P00877 3-475)
T1 construct: Purified from C. reinhardtii strain cMJ030 (sucrose gradient, anion exchange); also called purified Rubisco; Cr L8S8 Rubisco
Test: SPR; highest binding affinity of all peptides tested
pKd: −log10 of the molar value.

| BINDER | pKd |
| --- | --- |
| TNRVSPTRSVLPANWRQELESLRN (also called EPYC1 peptide; RBM 2 EPYC1 fragment) [24 amino acid EPYC1 fragment spanning RBM 2] | 2.52 |
